The origin of these recorded values is paper PMC10786891.

Biological target: T1, EsCas13d, nuclease-dead (Eubacterium siraeum, UniProt B0MS50, R295A;H300A;R849A;H854A)
T1 sequence: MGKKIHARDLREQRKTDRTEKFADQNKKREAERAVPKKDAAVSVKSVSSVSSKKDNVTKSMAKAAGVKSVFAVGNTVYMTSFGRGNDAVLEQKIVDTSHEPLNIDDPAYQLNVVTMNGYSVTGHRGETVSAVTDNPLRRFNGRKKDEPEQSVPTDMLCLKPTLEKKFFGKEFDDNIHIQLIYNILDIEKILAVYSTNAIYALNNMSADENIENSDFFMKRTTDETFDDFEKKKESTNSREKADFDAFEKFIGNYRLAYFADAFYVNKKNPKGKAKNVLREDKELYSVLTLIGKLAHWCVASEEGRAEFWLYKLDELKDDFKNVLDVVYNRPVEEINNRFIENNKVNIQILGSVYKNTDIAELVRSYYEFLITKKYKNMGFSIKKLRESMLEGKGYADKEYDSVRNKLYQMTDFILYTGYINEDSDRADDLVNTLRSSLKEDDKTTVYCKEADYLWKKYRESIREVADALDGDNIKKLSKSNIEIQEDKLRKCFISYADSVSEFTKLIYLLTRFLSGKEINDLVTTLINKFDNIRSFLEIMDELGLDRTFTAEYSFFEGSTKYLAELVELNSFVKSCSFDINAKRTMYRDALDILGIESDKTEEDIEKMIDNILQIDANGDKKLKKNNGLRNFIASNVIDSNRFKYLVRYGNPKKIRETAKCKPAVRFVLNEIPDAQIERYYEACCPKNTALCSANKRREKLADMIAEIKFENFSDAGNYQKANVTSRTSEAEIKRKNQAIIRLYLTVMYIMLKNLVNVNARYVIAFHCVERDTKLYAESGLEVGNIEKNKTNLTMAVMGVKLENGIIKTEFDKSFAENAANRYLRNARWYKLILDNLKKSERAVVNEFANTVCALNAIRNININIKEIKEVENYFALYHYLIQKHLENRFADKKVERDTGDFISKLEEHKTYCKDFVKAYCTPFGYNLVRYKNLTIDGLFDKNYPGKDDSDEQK
Experiment: crRNA (strand 1, pre-loaded); Mg2+; 40 mM Tris-HCl pH 7.5, 150 mM NaCl, 6 mM MgCl2, 1 mM DTT, 0.1% Tween-20, 0.2 mg/ml BSA; 25 C; 10 min per concentration, then washed
Conditions: tags: His6-TwinStrep-SUMO cleaved; N-terminal SNAP kept (SNAP-Surface 488); label: 3' end held by stalled T7 RNA polymerase
pKd: −log10 of the molar value.
READOUT_LABEL: pKd

[[record]]
binder = "target 1 U11A,G17A (mixed) RNA 1: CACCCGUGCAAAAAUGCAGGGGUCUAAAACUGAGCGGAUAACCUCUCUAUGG RNA 2: GGGAAUGGAUCCACAUCUACGAAUUCGUACCAUAAAGAGGAUAUCCGCUCACCGAGAUCGGAAGAGCACACGU"
readout_label = "pKd"
value = 7.04

[[record]]
binder = "target 1 insC 3' of 18,insC 3' of 15 (mixed) RNA 1: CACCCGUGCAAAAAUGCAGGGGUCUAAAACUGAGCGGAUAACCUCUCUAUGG RNA 2: GGGAAUGGAUCCACAUCUACGAAUUCGUACCAUACGAGCAGGUUAUCCGCUCACCGAGAUCGGAAGAGCACACGU"
readout_label = "pKd"
value = 7.25

[[record]]
binder = "target 1 MT 5'PFS GAA 3'PFS AUC (mixed) RNA 1: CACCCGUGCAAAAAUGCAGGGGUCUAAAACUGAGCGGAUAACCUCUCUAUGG RNA 2: GGGAAUGGAUCCACAUCUACGAAUUCGAACCAUAGAGAGGUUAUCCGCUCAAUCAGAUCGGAAGAGCACACGU"
readout_label = "pKd"
value = 7.37

[[record]]
binder = "target 3 insC 3' of 9,insC 3' of 4 (mixed) RNA 1: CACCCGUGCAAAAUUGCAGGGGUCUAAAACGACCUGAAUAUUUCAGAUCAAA RNA 2: GGGAAUGGAUCCACAUCUACGAAUUCGUUUUUGAUCUGAAAUACUUCAGCGUCUGCAGAUCGGAAGAGCACACGU"
readout_label = "pKd"
value = 7.06

[[record]]
binder = "target 1 insG 3' of 22,insA 3' of 19 (mixed) RNA 1: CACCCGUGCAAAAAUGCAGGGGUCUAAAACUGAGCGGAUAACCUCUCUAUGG RNA 2: GGGAAUGGAUCCACAUCUACGAAUUCGUACGCAUAAGAGAGGUUAUCCGCUCACCGAGAUCGGAAGAGCACACGU"
readout_label = "pKd"
value = 7.20

[[record]]
binder = "target 2 MT 5'PFS AGC 3'PFS AAA (mixed) RNA 1: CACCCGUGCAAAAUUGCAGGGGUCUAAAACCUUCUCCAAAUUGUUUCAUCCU RNA 2: GGGAAUGGAUCCACAUCUACGAAUUCAGCAGGAUGAAACAAUUUGGAGAAGAAAAGAUCGGAAGAGCACACGU"
readout_label = "pKd"
value = 7.89

[[record]]
binder = "target 1 MT 5'PFS CUA 3'PFS AUG (mixed) RNA 1: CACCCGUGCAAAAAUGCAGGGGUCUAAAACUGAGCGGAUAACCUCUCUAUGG RNA 2: GGGAAUGGAUCCACAUCUACGAAUUCCUACCAUAGAGAGGUUAUCCGCUCAAUGAGAUCGGAAGAGCACACGU"
readout_label = "pKd"
value = 7.43

[[record]]
binder = "target 1 insU 3' of 20,insG 3' of 14 (mixed) RNA 1: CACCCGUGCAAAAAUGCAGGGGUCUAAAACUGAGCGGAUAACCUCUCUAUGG RNA 2: GGGAAUGGAUCCACAUCUACGAAUUCGUACCAUUAGAGAGGGUUAUCCGCUCACCGAGAUCGGAAGAGCACACGU"
readout_label = "pKd"
value = 7.72

